Data provenance is the MegaScale stability set (Tsuboyama et al. 2023).

B1: EHEE_rd2_1257 (parent)
chain: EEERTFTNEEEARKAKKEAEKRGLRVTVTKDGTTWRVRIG

- Variants of: B1
- assay info: folding stability dG (cDNA display proteolysis); higher = more stable
- conditions: PBS, room temperature
folding stability dG vs 2 kcal/mol: at or above is criterion met, below is criterion not met.

Completed entries (count: 6):
EEERTFTNEEEARKAKKEAEKRGLRVTVTKDGTTPRVRIG [W35P]	criterion not met
EEERTFTNYEEARKAKKEAEKRGLRVTVTKDGTTWRVRIG [E9Y]	criterion met
EEERTFTNTEEARKAKKEAEKRGLRVTVTKDGTTWRVRIG [E9T]	criterion not met
EHERTFTNEEEARKAKKEAEKRGLRVTVTKDGTTWRVRIG [E2H]	criterion met
EEERMFTNEEEARKAKKEAEKRGLRVTVTKDGTTWRVRIG [T5M]	criterion not met
EEERTFTNENEARKAKKEAEKRGLRVTVTKDGTTWRVRIG [E10N]	criterion not met

Tell me whether folding stability dG is at least 2 kcal/mol here: EEERTFTNEEEARKANKEAEKRGLRVTVTKDGTTWRVRIG [K16N]
criterion not met

Tell me whether folding stability dG is at least 2 kcal/mol here: EEERTFTNEEEARKAKKEAEKRGLRVTVTKDGTTWRVRIN [G40N]
criterion met
